- TARGET_ENTITY: beta-catenin-B-cell lymphoma 9 protein complex (Homo sapiens)
- Sequence (P35222 whole entry): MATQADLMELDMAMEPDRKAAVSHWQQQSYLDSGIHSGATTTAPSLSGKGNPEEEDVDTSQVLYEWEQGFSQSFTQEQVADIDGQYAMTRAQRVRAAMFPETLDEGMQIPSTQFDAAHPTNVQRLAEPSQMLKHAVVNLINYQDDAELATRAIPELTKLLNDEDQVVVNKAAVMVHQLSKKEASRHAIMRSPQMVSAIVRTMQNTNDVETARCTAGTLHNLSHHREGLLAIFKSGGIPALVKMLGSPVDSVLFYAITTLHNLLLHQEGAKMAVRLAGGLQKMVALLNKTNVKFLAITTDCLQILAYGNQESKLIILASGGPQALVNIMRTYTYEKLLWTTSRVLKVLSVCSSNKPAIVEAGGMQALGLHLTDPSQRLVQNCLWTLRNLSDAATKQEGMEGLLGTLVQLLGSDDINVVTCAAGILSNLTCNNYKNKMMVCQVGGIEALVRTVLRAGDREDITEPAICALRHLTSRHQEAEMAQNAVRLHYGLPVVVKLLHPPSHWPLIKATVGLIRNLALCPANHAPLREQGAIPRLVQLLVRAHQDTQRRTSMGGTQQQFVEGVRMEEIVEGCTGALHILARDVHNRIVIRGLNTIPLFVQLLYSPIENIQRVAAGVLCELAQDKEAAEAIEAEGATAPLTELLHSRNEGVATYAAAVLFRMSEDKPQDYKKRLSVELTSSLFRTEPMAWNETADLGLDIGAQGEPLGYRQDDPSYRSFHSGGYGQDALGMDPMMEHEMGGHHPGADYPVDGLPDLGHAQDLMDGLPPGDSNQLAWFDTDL
- Sequence (O00512 whole entry, further chain): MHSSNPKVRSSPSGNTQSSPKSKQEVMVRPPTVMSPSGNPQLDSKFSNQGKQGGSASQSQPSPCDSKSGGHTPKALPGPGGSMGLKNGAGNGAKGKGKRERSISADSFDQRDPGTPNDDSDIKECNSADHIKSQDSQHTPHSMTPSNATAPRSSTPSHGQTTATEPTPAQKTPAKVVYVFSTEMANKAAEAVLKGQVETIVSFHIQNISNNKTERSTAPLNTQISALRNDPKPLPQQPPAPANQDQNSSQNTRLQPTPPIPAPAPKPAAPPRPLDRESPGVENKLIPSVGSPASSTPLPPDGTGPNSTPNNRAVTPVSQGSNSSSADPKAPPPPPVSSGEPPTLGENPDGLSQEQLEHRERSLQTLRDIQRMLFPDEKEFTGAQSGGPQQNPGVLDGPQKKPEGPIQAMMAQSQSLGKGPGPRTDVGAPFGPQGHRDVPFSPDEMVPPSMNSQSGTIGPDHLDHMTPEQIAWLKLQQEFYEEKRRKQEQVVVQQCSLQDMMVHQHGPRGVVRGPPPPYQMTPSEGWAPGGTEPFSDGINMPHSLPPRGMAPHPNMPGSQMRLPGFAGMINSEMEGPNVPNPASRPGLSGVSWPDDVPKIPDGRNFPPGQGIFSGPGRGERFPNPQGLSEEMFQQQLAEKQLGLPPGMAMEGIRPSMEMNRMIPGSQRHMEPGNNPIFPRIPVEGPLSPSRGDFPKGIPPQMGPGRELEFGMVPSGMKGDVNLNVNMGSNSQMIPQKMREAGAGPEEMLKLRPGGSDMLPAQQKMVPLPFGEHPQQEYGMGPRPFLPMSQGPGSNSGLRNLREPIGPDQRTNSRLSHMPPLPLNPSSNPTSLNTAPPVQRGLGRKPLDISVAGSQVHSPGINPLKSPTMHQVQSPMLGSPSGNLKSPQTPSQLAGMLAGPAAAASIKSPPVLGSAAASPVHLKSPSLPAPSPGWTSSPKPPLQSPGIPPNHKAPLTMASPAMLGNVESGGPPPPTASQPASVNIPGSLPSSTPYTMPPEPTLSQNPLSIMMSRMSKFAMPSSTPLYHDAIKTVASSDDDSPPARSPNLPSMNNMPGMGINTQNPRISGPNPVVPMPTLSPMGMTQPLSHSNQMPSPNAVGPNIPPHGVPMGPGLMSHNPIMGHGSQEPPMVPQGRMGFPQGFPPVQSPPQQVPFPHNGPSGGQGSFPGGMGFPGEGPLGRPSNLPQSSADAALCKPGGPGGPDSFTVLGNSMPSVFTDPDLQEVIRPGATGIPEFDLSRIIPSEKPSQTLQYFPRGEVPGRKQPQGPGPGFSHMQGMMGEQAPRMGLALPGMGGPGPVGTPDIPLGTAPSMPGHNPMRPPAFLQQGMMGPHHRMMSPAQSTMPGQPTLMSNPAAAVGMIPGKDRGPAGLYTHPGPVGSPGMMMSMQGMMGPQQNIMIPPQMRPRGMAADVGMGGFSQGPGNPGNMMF
- ASSAY_SUMMARY: Inhibition of beta-catenin (unknown origin)/BCL9 (unknown origin) protein-protein interaction assessed as inhibition constant by AlphaScreen assay
- Assay type: protein-complex assay
VALUE_KIND: pKi
Expect pKi as a plain number equal to -log10 of the molar concentration.

Any idea what its pKi is? The compound is O=C(Nc1ccc(O[C@H]2CCNC2)c(-c2cccc(-c3nn[nH]n3)c2)c1)c1ccc(O[C@H]2CCNC2)c(-c2ccc(F)c(F)c2)c1
6.33

---

Listed below: log10(microsomal CLint) values for each entry.
- ASSAY_SUMMARY: Microsomal stability in human liver microsomes assessed as intrinsic clearance at […] and measured upto 60 mins by LC-MS/MS analysis
- Assay type: ADME, Microsome
- DETAILS: read-out: CLH
Recorded microsomal CLint (log10, µL/min/mg)

Sample records with log10(microsomal CLint):
Form field: reported log10(microsomal CLint) of CC(C)c1ccc(-c2cccc(S(=O)(=O)N3CCCC(c4cccc(OC(C)(C)C(=O)NS(=O)(=O)c5ccccc5)c4)C3)c2)cc1 (stereo not given)
2.20

Item CC(C)c1ccc(-c2cccc(S(=O)(=O)N3CCCC(c4cccc(OC(C)(C)C(=O)NS(=O)(=O)c5ccc(C(F)(F)F)cc5)c4)C3)c2)cc1 (stereo not given) has what recorded log10(microsomal CLint)?
1.64

Endpoint output: log10(microsomal CLint) of CC(C)c1ccc(-c2cccc(S(=O)(=O)N3CCCC(c4cccc(OC(C)(C)C(=O)NS(=O)(=O)c5cccs5)c4)C3)c2)cc1 (stereo not given) . Value?
2.35

Recorded log10(microsomal CLint) of CC(C)c1ccc(-c2cccc(S(=O)(=O)N3CCC[C@@H](c4cccc(OC(C)(C)C(=O)NS(=O)(=O)c5ccc(C(F)(F)F)cc5)c4)C3)c2)cc1 , please.
1.30

Next:
May I ask what log10(microsomal CLint) has been recorded for CC(C)c1ccc(-c2cccc(S(=O)(=O)N3CCC[C@H](c4cccc(OC(C)(C)C(=O)NS(=O)(=O)c5ccc(C(F)(F)F)cc5)c4)C3)c2)cc1 ?
1.80

---

- ASSAY_SUMMARY: AUC (0 to infinity) in Sprague-Dawley rat at 21 mg/kg, ip and measured upto 24 hrs by LC-MS analysis
- Assay type: ADME, organism-based
- Set-up: time < 24 hrs, dose 21 mg/kg, route ip
- DETAILS: in vivo
VALUE_KIND: AUC(0-inf) (ng·h/mL)
Respond numerically; units are ng·h/mL and should not be typed.

Can you look up the measured AUC(0-inf) of CC(C)c1ccc(-c2cccc(S(=O)(=O)N3CCCC(c4cccc(OC(C)(C)C(=O)NS(=O)(=O)c5ccc(C(F)(F)F)cc5)c4)C3)c2)cc1 (stereo unspecified) for me?
17400

---

Reported pIC50 values for the following molecules.
- System: SW480
- ASSAY_SUMMARY: cells
- DETAILS: Homo sapiens, SW480, 48 h
On this scale, pIC50 is minus log10 of a concentration expressed in M (mol/L).

So what does the record say about pIC50 for O=C1[C@H](Cc2ccc(O)cc2)N2C(=O)CCN(C(=O)NCc3ccccc3)[C@H]2CN1Cc1cccc2ccccc12 ?
5.07

More entries:
For the molecule shown here, CC(C)c1ccc(-c2cccc(S(=O)(=O)N3CCCC(c4cccc(OC(C)(C)C(=O)NS(=O)(=O)c5ccc(C(F)(F)F)cc5)c4)C3)c2)cc1 (configuration not stated) , give the reported pIC50.
4.79
